Values compiled from patent US20250188110A1.

Listing of entries alongside the reported IC50.
- targetSystem: KMT9 (Homo sapiens, UniProt Q9Y5N5)
- Sequence (Q9Y5N5 whole entry): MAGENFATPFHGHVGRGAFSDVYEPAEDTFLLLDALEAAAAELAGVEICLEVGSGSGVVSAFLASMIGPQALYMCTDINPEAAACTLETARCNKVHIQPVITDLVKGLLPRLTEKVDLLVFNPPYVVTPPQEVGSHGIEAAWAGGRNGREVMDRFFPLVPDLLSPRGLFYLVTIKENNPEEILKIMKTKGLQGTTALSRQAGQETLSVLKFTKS
- Sequence (Q9UI30 1-120 isoform Q9UI30-2 partner): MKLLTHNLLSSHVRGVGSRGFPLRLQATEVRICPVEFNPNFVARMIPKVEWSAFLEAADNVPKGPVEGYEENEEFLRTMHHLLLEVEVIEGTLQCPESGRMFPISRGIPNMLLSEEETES
- assaySummary: KMT9 methyltransferase inhibition assay, MTaseGlo luminescence (from entry 155)
- Format: biochemical
- conditionContext: MTaseGlo procedure (entries from 155); 100 nM KMT9, 5 μM ETF1, 1 μM SAM; read-out: Inhibition (IC50)
quantityMeasured: IC50

1. COc1cccc([C@H]2C[C@@H](n3cc(Br)c4c(N)nc(Cl)nc43)[C@H](O)[C@@H]2O)c1	1000 to 10000 nM
2. Nc1cc(-c2cnsc2)cc([C@H]2C[C@@H](n3ccc4c(N)nc(Cl)nc43)[C@H](O)[C@@H]2O)c1	100 to 1000 nM
3. Nc1nc(Cl)nc2c1ccn2[C@@H]1C[C@H](c2cccc(CN3CCC3)c2)[C@@H](O)[C@H]1O	100 to 1000 nM
4. CNc1nc(Cl)nc2c1ccn2[C@@H]1C[C@H](c2cn[nH]c2)[C@@H](O)[C@H]1O	> 10000 nM
5. Nc1ncnc2c1ccn2[C@@H]1C[C@H]([C@@H]2CCCN2)[C@@H](O)[C@H]1O	> 10000 nM
6. Nc1nc(Cl)nc2c1c(-c1nc(Cc3ccccc3)cs1)cn2[C@@H]1C[C@H](C2CCN(CC(F)F)CC2)[C@@H](O)[C@H]1O	1000 to 10000 nM
7. NCCc1cccc([C@H]2C[C@@H](n3ccc4c(N)ncnc43)[C@H](O)[C@@H]2O)c1	1000 to 10000 nM
8. Nc1nc(Cl)nc2c1c(-c1nc(Cc3ccccc3)cs1)cn2[C@@H]1C[C@H](C2CCN(Cc3ccco3)CC2)[C@@H](O)[C@H]1O	1000 to 10000 nM
9. Nc1nc(Cl)nc2c1c(-c1ccn(S(=O)(=O)c3ccccc3)n1)cn2[C@@H]1C[C@H](C2CCN(CCc3ccccc3)CC2)[C@@H](O)[C@H]1O	100 to 1000 nM
10. CNc1nc(Cl)nc2c1ccn2[C@@H]1C[C@H](c2ccccc2)[C@@H](O)[C@H]1O	1000 to 10000 nM
11. Nc1nc(Cl)nc2c1c(-c1nc(Cc3ccccc3)cs1)cn2[C@@H]1C[C@H](C2CCN(C[C@H]3CCOC3)CC2)[C@@H](O)[C@H]1O [Compound 521R]	1000 to 10000 nM
12. Cn1ccc(-c2cn([C@@H]3C[C@H](c4cccc(CN5CCC5)c4)[C@@H](O)[C@H]3O)c3nc(Cl)nc(N)c23)n1	100 to 1000 nM
13. CC(=O)CN1CCC([C@H]2C[C@@H](n3cc(-c4nc(Cc5ccccc5)cs4)c4c(N)nc(Cl)nc43)[C@H](O)[C@@H]2O)CC1	100 to 1000 nM
14. Nc1nc(Cl)nc2c1ccn2[C@@H]1C[C@H](c2cnn(CCc3ccccc3)c2)[C@@H](O)[C@H]1O	> 10000 nM
15. Nc1nc(Cl)nc2c1c(Br)cn2[C@@H]1C[C@H](c2cccc(CN3CCC3)c2)[C@@H](O)[C@H]1O	100 to 1000 nM
16. CN(CCCNCCc1ccc(F)cc1)C[C@H]1C[C@@H](n2cc(-c3ccn(C)n3)c3c(N)nc(Cl)nc32)[C@H](O)[C@@H]1O	100 to 1000 nM
17. Nc1nc(Cl)nc2c1c(Br)cn2[C@@H]1CC(CNCCCNCCc2ccc(F)cc2)[C@@H](O)[C@H]1O (mixture of isomers)	100 to 1000 nM
18. NCc1cccc([C@H]2C[C@@H](n3cc(Br)c4c(N)nc(Cl)nc43)[C@H](O)[C@@H]2O)c1	100 to 1000 nM
19. CC(=O)c1cccc([C@H]2C[C@@H](n3ccc4c(N)ncnc43)[C@H](O)[C@@H]2O)c1	> 10000 nM
20. Nc1nc(Cl)nc2c1c(-c1ccccc1)cn2[C@@H]1C[C@H](CNCCCNCCc2cccc(Oc3ccccc3)c2)[C@@H](O)[C@H]1O	1000 to 10000 nM
21. Nc1nc(Cl)nc2c1c(-c1nc(Cc3ccccc3)cs1)cn2[C@@H]1C[C@H](C2CCN(Cc3ccn[nH]3)CC2)[C@@H](O)[C@H]1O	100 to 1000 nM
22. COc1cc([C@H]2C[C@@H](n3ccc4c(N)nc(Cl)nc43)[C@H](O)[C@@H]2O)ccn1	100 to 1000 nM
23. Nc1nc(Cl)nc2c1c(-c1nc(Cc3ccccc3)cs1)cn2[C@@H]1C[C@H](C2CCN(Cc3ccncc3)CC2)[C@@H](O)[C@H]1O	1000 to 10000 nM
24. Nc1nc(Cl)nc2c1ccn2[C@@H]1C[C@H](c2cc[nH]c(=O)c2)[C@@H](O)[C@H]1O	1000 to 10000 nM
25. COc1cc(CN)cc([C@H]2C[C@@H](n3ccc4c(N)nc(Cl)nc43)[C@H](O)[C@@H]2O)c1	100 to 1000 nM
26. COc1cc(Br)cc([C@H]2C[C@@H](n3ccc4c(N)nc(Cl)nc43)[C@H](O)[C@@H]2O)c1	100 to 1000 nM
27. Nc1nc(Cl)nc2c1ccn2[C@@H]1C[C@H](c2cccc(OC(F)(F)F)c2)[C@@H](O)[C@H]1O	1000 to 10000 nM
28. C=CCN1CCC([C@H]2C[C@@H](n3cc(-c4nc(Cc5ccccc5)cs4)c4c(N)nc(Cl)nc43)[C@H](O)[C@@H]2O)CC1	1000 to 10000 nM
